- Test system: M14
- Assay Summary: NCI tumour cell line growth inhibition, 48 h
Active and inactive are the calls of the source. No stated cut-off is given here; in the data, active = GI50 up to about 1.1 µM and inactive = higher.
The categories you may choose from are active, inactive

CCOC(=O)c1cc2c3ccn(Cc4ccccc4)c3c3c(C)noc3c2[nH]1 :: inactive

Q: // return assay outcome for CCOP(C)(=O)/C(Cc1ccc(OC)c(OC)c1)=N\O (centres undefined)
Result: inactive

Q: And what about the molecule CC(=O)/C=C/C1=C(C)CCCC1(C)CC(C)C (centres undefined) ?
Result: inactive

Q: Similarly, CCOC(=O)C1C(=O)C=C(c2cc(C)ccc2O)CC1c1cccc(Cl)c1 (centres undefined) ?
Result: inactive

Q: Also, Cn1c(=O)c2c(ncn2Cc2ccc(O)c([N+](=O)[O-])c2)n(C)c1=O please.
Result: inactive

Q: Item: COc1ccc(CC(C#N)c2cc(OC)c(OC)c(OC)c2)cc1 (centres undefined)
Result: active

Q: How about this molecule: O=C(OCc1ccccc1)N1CCCc2c(n(S(=O)(=O)c3ccccc3)c3ccccc23)C1
Result: inactive

Q: Field entry: c1ccc2c(C3CCN(CCN4CCOCC4)C3)c[nH]c2c1 (centres undefined)
Result: inactive

Q: Cool, now COC1=C(C(=O)OC(C)(C)C)[C@]2(C)C(C(=O)OC(C)(C)C)C(OC)=C(C(=O)OC(C)(C)C)[C@]2(C)C1C(=O)OC(C)(C)C (some centres undefined)
Result: inactive

----------
- Test system: RXF 631
- Assay Summary: NCI tumour cell line growth inhibition, 48 h
Calls of active or inactive are those of the source. No stated cut-off is given here; in the data, active = GI50 up to about 1.1 µM and inactive = higher.
Assay Readout: GI50

Some molecules with recorded GI50:
CC(C)N(C(=O)C12C3C4C1C1C2C3C41C(=O)N(C(C)C)C(C)C)C(C)C (configuration not stated) :: > 50 µM (inactive)
Cc1cccc(N(CC(=O)O)S(=O)(=O)c2ccccc2)c1 :: > 100 µM (inactive)
Nc1ccc(C(=O)N/C(=C\c2ccc3c(c2)OCO3)c2nc3c(O)nc(S)nc3[nH]2)cc1 :: > 100 µM (inactive)

For each of the molecules below, note its GI50.
1. O=P(O)(NCCCl)NCCCl [PALIFOSFAMIDE]
2. CC1=C(NC(=O)C(=O)NNC(=O)c2ccncc2)C(=O)c2ccccc2C1=O
3. O=c1c2ccccc2nc(-c2ccccc2Cl)n1NCC1(O)OCC(O)C(O)C1O (configuration not stated)
4. N#CC(C(=O)CCC(=O)Nc1cccc(C(F)(F)F)c1)c1ccc(Cl)cc1 (configuration not stated)

Result:
> 100 µM (inactive)
40.4 µM (inactive)
> 100 µM (inactive)
> 100 µM (inactive)

----------
Assignment: determine reported GI50 for the given molecules.
- Test system: BT-549
- Assay Summary: NCI tumour cell line growth inhibition, 48 h
Activity calls are given as the source filed them. Rule as the data show it: active = GI50 up to about 1.1 µM and inactive = higher.

See these solved cases before continuing.
O=c1c2ccccc2nc(-c2cc3c(cc2Cl)Sc2nccn2S3(=O)=O)n1-c1ccccc1 :: 41.1 µM (inactive)
C/C(=N\NC(=O)c1ccncc1)c1ccccc1Cl :: > 100 µM (inactive)
CCOP(=O)(OCC)OC1c2[nH]ccc2-c2cc(C(=O)OC)[nH]c2C1OC (stereo not drawn) :: 36.5 µM (inactive)
N#C/C(=C\c1cc(F)cc(F)c1)c1ccccn1 :: 30.1 µM (inactive)
COC(=O)[C@@H]1C[C@]2(Br)c3ccccc3N(S(=O)(=O)c3ccccc3)[C@@H]2N1C(=O)OC :: > 100 µM (inactive)
Oc1cc(Cl)cc2cccnc12 :: 3.89 µM (inactive)

// input: 2 molecules below; output: GI50 for each
1. NC(=O)c1ccc(N)nc1 [6-AMINONICOTINAMIDE]
2. COc1cc2c(cc1OCCCC(=O)Nc1cc(C(=O)Nc3cc(C(=O)Nc4cc(C(=O)NCCCN(C)C)n(C)n4)n(C)c3)n(C)c1)N=CC1CCCN1C2=O (stereo not drawn)

Result:
1: 14.1 µM (inactive); 2: 22.1 µM (inactive)

----------
- Tested on: SK-MEL-5
- Assay Summary: NCI tumour cell line growth inhibition, 48 h
The source made the active and inactive calls. No stated cut-off is given here; in the data, active = GI50 up to about 1.1 µM and inactive = higher.
Exercise: state measured GI50 for each of the compounds provided.

Some entries whose results are on file:
Cc1ccccc1C(=O)N/N=C/c1ccc(Sc2nccn2C)c([N+](=O)[O-])c1 :: 36.4 µM (inactive)
[N-]=[N+]=C1C(=O)C2CC3CC(C2)CC1C3 :: > 100 µM (inactive)
COc1ccc(C2COc3c(ccc(O)c3C)C2)cc1OC (stereo unspecified) :: 11.7 µM (inactive)
CSc1nc2c(c(=O)[nH]1)N=C(c1ccccc1)CC(c1ccccc1)N2 (stereo unspecified) :: 28.1 µM (inactive)
CC(C)N(C(=O)C12C3C4C1C1C2C3C41C(=O)N(C(C)C)C(C)C)C(C)C (stereo unspecified) :: > 50 µM (inactive)
CN1/C(=C\N=O)C(C)(C)N(O)C1(C)C :: > 100 µM (inactive)

Record GI50 for all entries; do not skip any.
1. N#CC(C(=O)CCC(=O)Nc1cccc(C(F)(F)F)c1)c1ccc(Cl)cc1 (stereo unspecified)
2. CC1(C)OCC2OC3([C@@H]4OC(C)(C)O[C@H]4CO)OC(C)(C)OC3C2O1 (stereo partly specified)
3. COC(=O)[C@H]1C[C@H]1NC(=O)C(CC(=O)OCc1ccccc1)NC(=O)OCc1ccccc1 (stereo partly specified)
4. CC(=O)OC12CC[N+]3(C)CCCCC3C1=Nc1ccccc12 (stereo unspecified)

Result:
> 100 µM (inactive)
> 100 µM (inactive)
25.4 µM (inactive)
> 100 µM (inactive)

Q: # GI50 lookup, item C=C1C(=O)O[C@@H]2OC3(C)CCC4C(C)CCC1C42OO3 (stereo partly specified)
Result: 4.88 µM (inactive)

----------
- System: KM12
- Assay Summary: NCI tumour cell line growth inhibition, 48 h
Calls of active or inactive are those of the source. Cut-off read from the data, not from the text of the source: active = GI50 up to about 1.1 µM and inactive = higher.
Assay Readout: GI50

Field: example entries. Status: answers known.
OCc1cc2c([nH]c3ccccc32)c(C(O)CO)n1 (stereo not drawn) :: > 100 µM (inactive)
CCn1c(CCl)nc2c1C(=O)c1ccccc1C2=O :: 1.73 µM (inactive)
C/C=C/[P+](c1ccccc1)(c1ccccc1)c1ccccc1 :: 0.277 µM (active)
COC(=O)C1C(C(=O)OC)N(Cc2ccccc2)C(=O)N1Cc1ccccc1 (stereo not drawn) :: > 100 µM (inactive)
CCN(CC)C(=O)CCN1CC1 :: > 10 µM (inactive)

Each of the following entries comes with a recorded value; kindly state GI50 for each.
1. CCOc1ccccc1-c1nc2c(s1)C(=O)c1ccccc1C2=O
2. COc1cc(/C=C2/C(=O)N(C(=O)c3ccc(Cl)cc3)N=C2C)cc(OC)c1OC
3. O=C(/C=C\c1ccccc1-c1ccccc1)c1ccccc1
4. O=P(O)(NCCCl)NCCCl [PALIFOSFAMIDE]
5. O=C1/C(=C/c2ccco2)NC(=S)N1CN1CCCCC1
6. CC1SC2=NC3=C(c4ccccc4C3=O)C(c3ccc(F)cc3)N2C1=O (stereo not drawn)

Result:
["15.4 µM (inactive)", "> 100 µM (inactive)", "29.4 µM (inactive)", "> 10 µM (inactive)", "> 100 µM (inactive)", "> 100 µM (inactive)"]

Please state, for each entry, its recorded GI50.
1. C=C1C[C@H](O)[C@H]2C(C[Se]c3ccccc3)C(=O)O[C@@H]2[C@H]2[C@H](C)C(O)C[C@@H]12 (stereo partly drawn)
2. CC1=C2C(=CC(C)(CO)C2O)C(=O)C(C)(O)C12CC2 (stereo not drawn)

Result:
1: 40 µM (inactive); 2: 0.00228 µM (active)

----------
- Tested on: K562
- Assay Summary: NCI tumour cell line growth inhibition, 48 h
The source made the active and inactive calls. No stated cut-off is given here; in the data, active = GI50 up to about 1.1 µM and inactive = higher.
Assay Readout: GI50

// solved cases for GI50 follow
COc1cc2ccccc2c2cc([N+](=O)[O-])oc12 :: 0.319 µM (active)
CCOC(=O)Cn1nnc2cc(Nc3c(C)[n+]([O-])c4cc(F)c(OCC)cc4[n+]3[O-])ccc21 :: 7.16 µM (inactive)
COc1cc([C@@H]2c3cc4c(cc3[C@@H](NCc3cccc(C#N)c3)C3COC(=O)[C@@H]32)OCO4)cc(OC)c1O (some centres not stated) :: 1.83 µM (inactive)
CCOP(C)(=O)/C(Cc1ccc(OC)c(OC)c1)=N\O (configuration not stated) :: > 100 µM (inactive)

State recorded GI50 for all listed compounds.
1. O=C(CCC(=O)Nc1cccc(Cl)c1)CC(=O)c1ccc(F)cc1
2. CN1CCN(c2ccc3c(c2)NCC(=O)N3)CC1

Result:
1. > 100 µM (inactive)
2. > 100 µM (inactive)

// for each compound in input: emit GI50
1. Cc1c(C(=O)/C=C/c2ccc3c(c2)OCO3)[n+]([O-])c2ccccc2[n+]1[O-]
2. Oc1cc(Cl)cc2cccnc12
3. Sc1nc2c(c(-c3nc(S)nc4c3CCCCCCCCCC4)n1)CCCCCCCCCC2
4. CCCNC(=O)C1C(=O)C(=O)N(CCC)C1=O (configuration not stated)

Result:
1. 33 µM (inactive)
2. 0.396 µM (active)
3. > 100 µM (inactive)
4. > 100 µM (inactive)

meta.source: ChEMBL document CHEMBL1201862
